# protocol text: Stability in rabbit serum assessed as intact compound remaining at 10 to 20 uCi/mL after 60 mins by size-exclusion HPLC analysis
# Format: ADME, cell-free, Oryctolagus cuniculus
# condition details: read-out: Stability
parameter measured: remaining at 1 h (%)
Just the number please, in %, no unit attached.

### Prompt Supply remaining at 1 h value. Item: `O=c1[nH]c(=O)n([C@H]2C[C@H](O)[C@@H](COP(=O)(O)O)O2)cc1[125I]`
### Response 30

* * *

# protocol text: Stability in mouse serum assessed as intact compound remaining at 20 uCi after 40 mins by size-exclusion HPLC analysis
# Type: ADME, cell-free
# condition details: read-out: Stability
parameter measured: remaining at 40 min, 20 uCi

### Prompt Supply remaining at 40 min, 20 uCi value. Item: `C[C@]12CCC(=O)C[C@@H]1CC[C@@H]1[C@@H]2CC[C@]2(C)[C@@H](OC(=O)CCC(=O)O[C@H]3C[C@H](n4cc([125I])c(=O)[nH]c4=O)O[C@@H]3COP(=O)(O)O)CC[C@@H]12`
### Response 60%
